Experiment: qHTS assay to identify small molecule that activate the aryl hydrocarbon receptor (AhR) signaling pathway - cell viability counter screen (AID 743086);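 note: HepG2 liver cells carrying the AhR DRE luciferase reporter; % is set by controls: 0 for no effect and ±100 for the full control effect; nearly all actives have a fitted effect of over 45% in size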
Details: HepG2-AhR-luc viability, CellTiter-Fluor, 24 h; series mostly up to 70.3 µM
Inconclusive results are not listed. The source made the active and inactive calls. Calls come from the whole dose curve; as a rule, active = well fitted cell-killing curve with a large enough effect in the repeat runs; inconclusive = weak or mixed curves, or effect the other way; inactive = flat fitted curve, though single readings scatter.
Can you answer with just one of these options? 1 for active, -1 for inactive

Query block: Test call, this compound: `CC(=O)NNc1ccccc1`
Result block: -1

Query block: # lookup: test call for `COC(=O)Cc1ccccc1`
Result block: -1

Query block: Hi team, can someone confirm the assay call for `CCCCCCCCCCCCN(C)C` ?
Result block: -1

Query block: For `O=C(O)C(F)(F)C(F)(F)C(F)(F)C(F)(F)C(F)(F)C(F)(F)C(F)(F)C(F)(F)F` , which call appears in the assay record?
Result block: -1

* * *

Assay: qHTS assay to identify small molecule agonists of the estrogen related receptor (ERR) signaling pathway from Tox21 library (AID 1224849); note: % is set by controls: 0 for no effect and ±100 for the full control effect; nearly all actives have a fitted effect of over 15% in size
Conditions: ERR reporter cell line, ONE-Glo luciferase, 18 h; at 92.4 µM (top of the series)
Consider the following compounds; for each one, report its activity change, positive = activation.
Give bare numbers, in %.

// worked examples, activity change, positive = activation included
| compound | activity change, positive = activation [%] |
| --- | --- |
| O=C(NCNC(=O)NC1C(=O)NC(=O)N1CO)NC1C(=O)NC(=O)N1CO (stereo unspecified) | 3.53 |
| CCCC(C)(COC(N)=O)COC(=O)NC(C)C (stereo unspecified) | -2.02 |
| c1ccc2c(c1)sc1ccccc12 | -4.7 |

Report activity change, positive = activation for every entry below.
1. C=CCc1ccccc1O
2. O=[N+]([O-])c1cc(Cl)c(Cl)cc1Cl
3. CC(=O)NNc1ccccc1
4. C[CH2][Hg][S]c1ccccc1C(=O)O
5. COC1=CC(=O)O[C@@H](/C=C/c2ccc3c(c2)OCO3)C1
6. CN1CC[C@]23c4c5ccc(O)c4O[C@H]2[C@@H](O)C=C[C@H]3[C@H]1C5

Result block:
1: 0.524; 2: 0.191; 3: -40.3; 4: -77.1; 5: -47.8; 6: 1.06

* * *

Assay: qHTS assay to identify small molecule antagonists of the peroxisome proliferator-activated receptor gamma (PPARg) signaling pathway - cell viability counter screen (AID 743194); note: % is set by controls: 0 for no effect and ±100 for the full control effect; nearly all actives have a fitted effect of over 55% in size
Details: PPARg-bla HEK293H viability, CellTiter-Glo luminescence, 17 h; co-treated with 50 nM rosiglitazone; series mostly up to 62.6 µM
Inconclusive results are not listed. Activity calls are given as the source filed them. The call rests on the fitted dose curve; in most records, active means well fitted cell-killing curve with a large enough effect in the repeat runs; inconclusive means weak or mixed curves, or effect the other way; inactive means no such curve, though single readings can be large or run the other way.
assay.metric: outcome

| compound | outcome |
| --- | --- |
| CCCN(CCOc1c(Cl)cc(Cl)cc1Cl)C(=O)n1ccnc1 | inactive |
| N#CC(C#N)=C(C#N)C#N | inactive |
| OCC1CO1 (centres undefined) | inactive |
| CCOC(=O)C1OC1(C)c1ccccc1 (centres undefined) | inactive |

Quick batch: outcome for everything below.
1. Cc1ccccc1
2. Cc1nc(N(C)C)nc(OC(=O)N(C)C)c1C
3. CC(C)c1ccc(OP(=O)(Oc2ccc(C(C)C)cc2)Oc2ccc(C(C)C)cc2)cc1
4. CCCCC(CC)CO[N+](=O)[O-] (centres undefined)

Result block:
1. inactive
2. inactive
3. inactive
4. inactive

Working through the 6 compounds below one at a time, give outcome for each.
1. C[N+](C)(C)CC1CO1 (centres undefined)
2. CN1CC[C@]23c4c5ccc(O)c4O[C@H]2[C@@H](O)C=C[C@H]3[C@H]1C5
3. Cc1ccc2c(C)cccc2c1
4. CC(C)(C)CC(C)(C)c1ccc(O)cc1
5. COc1ccc(C(O)(c2cncnc2)C2CC2)cc1 (centres undefined)
6. C#C[C@]1(O)CC[C@H]2[C@@H]3CCC4=CC(=O)CCC4=C3C=C[C@@]21CC

Result block:
1. inactive
2. inactive
3. inactive
4. inactive
5. inactive
6. inactive

* * *

Molecular target: Progesterone receptor (Homo sapiens)
Assay: qHTS assay to identify small molecule antagonists of the progesterone receptor (PR) signaling pathway (AID 1346795); note: % is set by controls: 0 for no effect and ±100 for the full control effect
Details: PR-UAS-bla HEK293T, beta-lactamase FRET ratio, 16 h; series mostly up to 92.4 µM
Results filed as inconclusive are left out. The source made the active and inactive calls. Calls come from the whole dose curve; as a rule, active = well fitted inhibition curve with a large enough effect in the signal ratio in the repeat runs (not every such curve was filed as active); inconclusive = weak or mixed curves; inactive = flat fitted curve, though single readings scatter; the % refers to the signal ratio.
Form entry, call: pick from active, inactive

Known results for molecules:
| molecule | assigned.class |
| --- | --- |
| CC(C)(C)c1ccc(CCOc2ncnc3ccccc23)cc1 | inactive |
| CC(C)(c1ccccc1)c1cc(-n2nc3ccccc3n2)c(O)c(C(C)(C)c2ccccc2)c1 | inactive |
| CCC1(CC)C(=O)NC(=O)NC1=O | inactive |
| C=CC(=O)OCC | inactive |

Query block: Hi team, can someone confirm the assay call for `C=CCc1ccccc1O` ?
Result block: inactive

Query block: What was the test verdict on C[N+]1(CCF)[C@@H]2CC[C@H]1CC(OC(=O)C(O)(c1ccccc1)c1ccccc1)C2 (stereo partly drawn) ?
Result block: inactive

* * *

Test: qHTS assay to identify small molecule agonists of the TGF-beta/Smad signaling pathway - cell viability counter screen (AID 1346829); note: top concentration of the series differs between compounds; % is set by controls: 0 for no effect and ±100 for the full control effect; nearly all actives have a fitted effect of over 45% in size
Settings: SBE-bla HEK293T viability, CellTiter-Glo luminescence, 5 h; series mostly up to 76.8 µM
Results filed as inconclusive are left out. The source made the active and inactive calls. Calls come from the whole dose curve; as a rule, active = well fitted cell-killing curve with a large enough effect in the repeat runs; inconclusive = weak or mixed curves, or effect the other way; inactive = flat fitted curve, though single readings scatter.
assay.metric: activity change, negative = cytotoxicity

| compound | result |
| --- | --- |
| CCCC1CCCCN1 (configuration not stated) | inactive |
| CC(C)C1(C)N=C(c2ncccc2C(=O)O)NC1=O (configuration not stated) | inactive |
| N#CC(C#N)=Cc1ccc(O)c(O)c1 | inactive |
| CC(C)(C)NCC(O)c1ccccc1Cl (configuration not stated) | inactive |
| C[C@]12C=CC3=C4CCC(=O)C=C4CC[C@H]3[C@@H]1CC[C@@H]2O | inactive |
| COc1ccc(C(O)(c2cncnc2)C2CC2)cc1 (configuration not stated) | inactive |

Read the next record carefully.
Query block: Which activity change, negative = cytotoxicity reading was recorded for the compound `C=C(Cl)Cl` ?
Result block: inactive

* * *

Test: A CellTox Green Cytotoxicity Assay to monitor cytotoxicity in HepG2 cells - 8 hour (AID 1224890); note: % is set by controls: 0 for no effect and ±100 for the full control effect; nearly all actives have a fitted effect of over 45% in size
Conditions: CellTox Green fluorescence; series mostly up to 76.8 µM
Inconclusive results are not listed. The source made the active and inactive calls. The call rests on the fitted dose curve; in most records, active means well fitted activation curve with a large enough effect in the repeat runs; inconclusive means weak or mixed curves; inactive means flat fitted curve, though single readings scatter.
assay.metric: cytotoxicity increase

Example compounds with recorded cytotoxicity increase:
| compound | result |
| --- | --- |
| CN(C)N | inactive |
| C=CC(=O)NC(C)(C)CC(C)=O | inactive |
| CC[N+]1(CCOC(=O)C(O)(c2ccccc2)c2ccccc2)CCCCC1 | inactive |
| CCC1CCC(=O)O1 (stereo not drawn) | inactive |
| CCCCCl | inactive |
| CCCCCCCCCCCCCCCl | inactive |

Field: cytotoxicity increase. Fill in for each record below.
1. CC(O)CN1CCN(CC(=O)[O-])CCN(CC(=O)[O-])CCN(CC(=O)[O-])CC1.[Gd+3] (stereo not drawn)
2. C=CCSSCC=C

Result block:
inactive
inactive

* * *

Assay: qHTS assay to identify small molecule agonists of the TGF-beta/Smad signaling pathway (AID 1346859); note: % is set by controls: 0 for no effect and ±100 for the full control effect
Conditions: SBE-bla HEK293T, TGF-beta/Smad beta-lactamase reporter, 5 h; series mostly up to 76.8 µM
Inconclusive results are not listed. Active and inactive are the calls of the source. Calls come from the whole dose curve; as a rule, active = well fitted activation curve with a large enough effect in the signal ratio in the repeat runs (not every such curve was filed as active); inconclusive = weak or mixed curves; inactive = flat fitted curve, though single readings scatter; the % refers to the signal ratio.
assay.metric: activation

Some solved entries appear below for comparison.
| compound | activation |
| --- | --- |
| CN1CC[C@]23c4c5ccc(O)c4O[C@H]2[C@@H](O)C=C[C@H]3[C@H]1C5 | inactive |
| C[N+](C)(C)CCOC(=O)C(O)(c1ccccc1)c1ccccc1 | inactive |
| C[N+](C)(C)CC1CO1 (stereo not given) | inactive |
| CCCCCCCCCCCCCCCl | inactive |
| N#CC1(N=NC2(C#N)CCCCC2)CCCCC1 | inactive |

Dear reader, for each entry below, please note its activation.
1. COc1ccc2c(c1OC)C(=O)O[C@H]2[C@@H]1c2cc3c(cc2CCN1C)OCO3
2. CCN(C(C)=O)c1cccc(-c2ccnc3c(C#N)cnn23)c1
3. CCCCCCCCn1sccc1=O

Result block:
1. inactive
2. inactive
3. inactive

# per-item lookup of activation; items listed below
1. Cc1ccccc1
2. CC(C)(C)c1ccc(CCOc2ncnc3ccccc23)cc1
3. O=C(O)c1cc(I)cc(I)c1I

Result block:
1. inactive
2. inactive
3. inactive

List reported activation for each of these compounds:
1. CCC1(C2=NCCN2)Cc2ccccc2O1 (stereo not given)
2. C=CC(=O)OCC
3. CC[N+]1(C)CCCC(OC(=O)C(O)(c2ccccc2)c2ccccc2)C1 (stereo not given)
4. CCCC[P+](CC)(CCCC)CCCC (tested in a mixture with another compound)
5. Clc1ccc2ccccc2c1

Result block:
inactive
inactive
inactive
inactive
inactive

Would you be so kind as to report activation for each listed record?
1. Nc1cc(Cl)cc(C(=O)O)c1Cl
2. CCOC(=O)NC(O)C(Cl)(Cl)Cl (stereo not given)
3. CC(C)(C)OOC(C)(C)CCC(C)(C)OOC(C)(C)C
4. FC(Cl)(Cl)C(F)(Cl)Cl
5. Nc1c(Br)cc(Br)c2c1C(=O)c1ccccc1C2=O
6. CCc1cnc(C2=NC(C)(C(C)C)C(=O)N2)c(C(=O)O)c1 (stereo not given)
7. CC(C)(C)NCC(O)c1ccccc1Cl (stereo not given)
8. COCc1cnc(C2=NC(C)(C(C)C)C(=O)N2)c(C(=O)O)c1 (stereo not given)

Result block:
["inactive", "inactive", "inactive", "inactive", "-5.21% [at 15.8 µM] (inactive)", "inactive", "inactive", "inactive"]

Reference for the values: PubChem BioAssay (Tox21)
